target: cathepsin B (Homo sapiens); assay: Cathepsin B activity assay with Z-Phe-Arg-AMC, inhibition kinetics; assay type: biochemical; conditions: pH 5.5; Z-Phe-Arg-AMC substrate; no preincubation
ASSAY_METRIC: pIC50
Numbers only, as −log10 of the molar value.

Determine its reported pIC50: CCCNC(=O)[C@H]1O[C@@H]1C(=O)N[C@H](C(=O)N1CCC[C@H]1C(=O)OC)[C@@H](C)CC [CA-074Me]
4.86

---

Please provide measured IC50 for the entries that follow.
molecular target: Cathepsin K (Homo sapiens, UniProt P43235); experiment: Selectivity assay, cathepsin K; format: biochemical; conditions: pH 7.2
Sequence (P43235 115-329): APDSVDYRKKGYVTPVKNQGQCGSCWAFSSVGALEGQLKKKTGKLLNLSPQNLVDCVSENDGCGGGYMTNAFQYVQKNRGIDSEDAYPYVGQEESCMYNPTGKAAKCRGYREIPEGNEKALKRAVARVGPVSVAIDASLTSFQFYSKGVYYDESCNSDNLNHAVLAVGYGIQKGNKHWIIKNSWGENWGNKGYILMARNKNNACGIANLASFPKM

- MOLECULE: "CCCNC(=O)[C@H]1O[C@@H]1C(=O)N[C@H](C(=O)N1CCC[C@H]1C(=O)OC)[C@@H](C)CC [CA-074Me]"
  VALUE_OBSERVED: "> 16 µM"

Determine its reported IC50: CCCNC(=O)[C@H]1O[C@@H]1C(=O)N[C@H](C(=O)N1CCC[C@H]1C(=O)O)[C@@H](C)CC (relative stereo)
> 16 µM
